- Test system: S. aureus MSSA476
- Construct: MSSA476
- Parameters: species or system S. aureus MSSA476 (TSB) or V. cholerae SAD30 (LB); 384-well bacterial growth screen at 25 uM, OD600 relative to DMSO control
- Condition Description: relative growth, OD600, TSB; 25 µM; inhibitor
Hit rate of the full screen: of about 3,200 compounds, about 75 (2%) showed an effect of 50% or more. What follows is part of a selection rich in strong results, with near analogues and random picks from the rest.
Observed Property: % of control remaining (%)
Give the quantity in %, number only.

Recorded results for 4 molecules are shown here.
Molecule | % of control remaining (%)
CCCc1ccc(C(=O)CCl)cc1 | 134.375
CCOC(=O)c1ccc(NC(=O)CCl)cc1 [4-E17, ethyl 4-(2-chloroacetamido)benzoate] | 118.152
CCc1ccc(C(=O)CCl)cc1 | 102.188
CC(C)C(=O)Nc1ccc(C(=O)CCl)cc1 | 4.6875

# input molecule: O=C1C=CC(=O)N1c1ccc(F)cc1 ; wanted: its % of control remaining
118.75
